For each entry below, report its Membrane-associated PLB activity, percentage of the control value.
# Test system: membrane-associated phospholipase B (PLB activity)
# method summary: Radiometric assay, membrane-associated PLB activity
# Format: biochemical, Cryptococcus neoformans H99
# conditions used: pH 7.0; modifier 10 mM (Triton X-100 0.1% w/v)
Numbers only, in %.

| smiles | measure unit | result number |
| --- | --- | --- |
| O=C(O)CN(CCOCCOCCN(CC(=O)O)CC(=O)O)CC(=O)O | % | 200 |

Switching to the query record.
Ask: May I ask what Membrane-associated PLB activity, percentage of the control has been recorded for O=C(O)CN(CCN(CC(=O)O)CC(=O)O)CC(=O)O ?
Result: 67

---

# Tested on: secreted phospholipase B (LPL/LPTA activities)
# method summary: Radiometric assay, secreted LPL and LPTA activities (Lyso assay)
# Type: biochemical, Cryptococcus neoformans H99
# conditions used: 2.5 μM
For each entry below, report its Lyso assay (% inhibition) LPL value.
One number for each entry, in %.

| smiles | Lyso assay (% inhibition) LPL (%) |
| --- | --- |
| CCCC[P+](CCCC)(CCCC)CCCCCCCCCCCC[P+](CCCC)(CCCC)CCCC | 0 |

Consider the following items and state reported Lyso assay (% inhibition) LPL for each.
1. CCC[N+](CCC)(CCC)CCCCCCCCCCCC[N+](CCC)(CCC)CCC
2. CCCCCCCCCCCCCCCC[P+](CCCC)(CCCC)CCCC

Result:
1. 0
2. 0

---

# System: membrane-associated phospholipase B (LPL/LPTA activities)
# method summary: Radiometric assay, membrane-associated LPL/LPTA activities
# Type: biochemical, Cryptococcus neoformans H99
# conditions used: pH 4.0; modifier 10 mM (Triton X-100 0.1% w/v)
readout type: Membrane-associated LPL activity, percentage of the control
Respond with a number, then the unit of measure.

# example entries with known answers
| compound | study system | result |
| --- | --- | --- |
| [Cl][Fe]([Cl])[Cl] [FeCl3] | membrane-associated phospholipase B (LPL/LPTA activities) | 97% |
| O=C(O)CN(CCOCCOCCN(CC(=O)O)CC(=O)O)CC(=O)O [EGTA, ethyleneglycoldiamine tetraacetic acid] | membrane-associated phospholipase B (LPL/LPTA activities) | 100% |
| O=C(O)CN(CCN(CC(=O)O)CC(=O)O)CC(=O)O [EDTA, ethylenediaminetetraacetic acid] | membrane-associated phospholipase B (LPL/LPTA activities) | 98% |
| [Ca+2] [Calcium] | membrane-associated phospholipase B (LPL/LPTA activities) | 100% |

Ask: May I ask what Membrane-associated LPL activity, percentage of the control has been recorded for [Mg+2] [Magnesium] ?
Result: 97%

---

For each entry below, report its Lyso assay (% inhibition) LPTA value.
# System: secreted phospholipase B (LPL/LPTA activities)
# method summary: Radiometric assay, secreted LPL and LPTA activities (Lyso assay)
# Assay type: biochemical, Cryptococcus neoformans H99
# conditions used: 0.25 μM
Numbers only, in %.

| smiles | Lyso assay (% inhibition) LPTA / % |
| --- | --- |
| CCCC[P+](CCCC)(CCCC)CCCCCCCCCCCC[P+](CCCC)(CCCC)CCCC | 0 |

Consider the following items and state reported Lyso assay (% inhibition) LPTA for each.
1. CCCCCCCCCCCCCCCC[P+](CCCC)(CCCC)CCCC
2. CCC[N+](CCC)(CCC)CCCCCCCCCCCC[N+](CCC)(CCC)CCC

Result:
1. 0
2. 0

Origin of the recorded values: patent US7947854B2
